# procedure.details: In vivo pharmacokinetic study, oral administration to rats
# run.parameters: male, Sprague-Dawley, rat, plasma; rats, oral, 0.5 mg/kg
# Method: Male Sprague Dawley (SD) rats, 6–7 weeks old, were purchased from Orient Bio Inc. (Seongnam-si, Korea) and were used in all in vivo studies. […] The peak concentration (Cmax) and the time to reach Cmax (Tmax) were obtained directly from individual plasma concentration–time profiles. […] The systemic clearance (CL), mean residence time (MRT), and the volume of the distribution at the steady state (Vss) were calculated as follows: dose/AUC, AUMC/AUC, and MRT·CL, respectively. […]
result.type: half-life (h)

COc1cc(OC)cc(N2CCN(C(=O)Nc3nc4cc(F)ccc4nc3OC)CC2)c1 [supinoxin] : 2

###

# assay.target: CYP3A4 (Homo sapiens)
# Construct: purchased Thermo Fisher Scientific
# Sequence (P08684 whole entry): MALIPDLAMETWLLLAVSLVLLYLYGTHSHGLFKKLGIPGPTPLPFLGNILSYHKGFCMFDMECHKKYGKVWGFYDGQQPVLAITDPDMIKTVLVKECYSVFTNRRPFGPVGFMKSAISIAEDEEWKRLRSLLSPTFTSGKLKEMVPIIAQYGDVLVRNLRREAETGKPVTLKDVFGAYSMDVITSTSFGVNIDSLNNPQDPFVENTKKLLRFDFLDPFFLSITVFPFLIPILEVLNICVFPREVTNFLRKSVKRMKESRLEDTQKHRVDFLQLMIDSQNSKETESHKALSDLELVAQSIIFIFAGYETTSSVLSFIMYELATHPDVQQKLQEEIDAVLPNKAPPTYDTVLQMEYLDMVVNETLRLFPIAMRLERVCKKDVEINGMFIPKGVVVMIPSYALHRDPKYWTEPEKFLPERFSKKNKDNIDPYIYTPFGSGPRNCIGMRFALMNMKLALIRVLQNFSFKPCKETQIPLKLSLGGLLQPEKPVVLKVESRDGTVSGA
# procedure.details: CYP inhibition, Vivid CYP450 screening kit
# Format: in vitro ADME
# run.parameters: recombinant human CYP3A4 (P450 Baculosomes), probe Vivid substrate; human recombinant CYP3A4, 10 µM
# Method: CYP inhibition by supinoxin was studied using Vivid® CYP450 screening kits (Thermo Fisher Scientific, San Jose, CA, USA) following the manufacturer’s instructions. […] After a 30-min incubation, fluorescence was detected in end-point mode using a Varioscan™ Flash multimode reader (Thermo Fisher Scientific, San Jose, CA, USA). Background fluorescence was obtained from wells not containing CYP isozymes and was withdrawn before further reaction. […]
result.type: inhibition at 30 min, 10 µM

COc1cc(OC)cc(N2CCN(C(=O)Nc3nc4cc(F)ccc4nc3OC)CC2)c1 : > 50%

###

# procedure.details: In vivo pharmacokinetic study, oral administration to rats
# run.parameters: Sprague-Dawley, rat, plasma; fasted male SD rats, oral 0.5 mg/kg, 10 h
result.type: concentration at 10 h (ng/mL)

COc1cc(OC)cc(N2CCN(C(=O)Nc3nc4cc(F)ccc4nc3OC)CC2)c1 [supinoxin] : 5

###

# procedure.details: Tissue distribution (tissue-to-plasma partition) in rats
# Assay type: in vivo
# run.parameters: male, Sprague-Dawley, rat; Adipose tissue; rats, oral administration (5 mg/kg); read-out: Kp (tissue to plasma AUC ratio)
result.type: Kp

COc1cc(OC)cc(N2CCN(C(=O)Nc3nc4cc(F)ccc4nc3OC)CC2)c1 : 21.7

###

# procedure.details: In vivo pharmacokinetic study, oral administration to rats
# run.parameters: Sprague-Dawley, rat, plasma; fasted male SD rats, oral 5 mg/kg, 7 h
result.type: concentration at 7 h (ng/mL)

COc1cc(OC)cc(N2CCN(C(=O)Nc3nc4cc(F)ccc4nc3OC)CC2)c1 : 113

###

# procedure.details: In vivo pharmacokinetic study, intravenous administration to rats
# run.parameters: Sprague-Dawley, rat, plasma; fasted male SD rats, intravenous 0.5 mg/kg, 3 h
result.type: concentration at 3 h (ng/mL)

COc1cc(OC)cc(N2CCN(C(=O)Nc3nc4cc(F)ccc4nc3OC)CC2)c1 : 79.3

###

# procedure.details: In vivo pharmacokinetic study, intravenous administration to rats
# run.parameters: Sprague-Dawley, rat, plasma; fasted male SD rats, intravenous 5 mg/kg, 10 h
result.type: concentration at 10 h (ng/mL)

COc1cc(OC)cc(N2CCN(C(=O)Nc3nc4cc(F)ccc4nc3OC)CC2)c1 : 130

###

# procedure.details: In vivo pharmacokinetic study, intravenous administration to rats
# run.parameters: male, Sprague Dawley, rat, plasma; rats, intravenous, 5 mg/kg
# Protocol: Male Sprague Dawley (SD) rats, 6–7 weeks old, were purchased from Orient Bio Inc. (Seongnam-si, Korea) and were used in all in vivo studies. […] The peak concentration (Cmax) and the time to reach Cmax (Tmax) were obtained directly from individual plasma concentration–time profiles. […] The systemic clearance (CL), mean residence time (MRT), and the volume of the distribution at the steady state (Vss) were calculated as follows: dose/AUC, AUMC/AUC, and MRT·CL, respectively. […]
result.type: MRT

COc1cc(OC)cc(N2CCN(C(=O)Nc3nc4cc(F)ccc4nc3OC)CC2)c1 : 4.07 h

###

# procedure.details: Unbound fraction in microsomal incubation mixture (Rapid Equilibrium Dialysis)
# Assay type: in vitro ADME
# run.parameters: rat, liver microsomal incubation mixture, liver microsomes 0.5 mg protein/mL, 18 h incubation
result.type: fraction unbound at 18 h, 1 µM

COc1cc(OC)cc(N2CCN(C(=O)Nc3nc4cc(F)ccc4nc3OC)CC2)c1 [supinoxin] : 0.623

###

# procedure.details: Tissue distribution (tissue-to-plasma partition) in rats
# Type: in vivo
# run.parameters: male, Sprague Dawley, rat, plasma, oral, 5 mg/kg; estimated Kp and tissue volumes from literature; read-out: steady state volume of distribution calculated from Kp and tissue volumes
result.type: Vd (L)

COc1cc(OC)cc(N2CCN(C(=O)Nc3nc4cc(F)ccc4nc3OC)CC2)c1 : 1.92

###

# procedure.details: In vivo pharmacokinetic study, intravenous administration to rats
# run.parameters: Sprague-Dawley, rat, plasma; fasted male SD rats, intravenous 5 mg/kg, 7 h
result.type: concentration at 7 h (ng/mL)

COc1cc(OC)cc(N2CCN(C(=O)Nc3nc4cc(F)ccc4nc3OC)CC2)c1 : 234

###

# procedure.details: Tissue distribution (tissue-to-plasma partition) in rats
# Assay type: in vivo
# run.parameters: male, Sprague-Dawley, rat; Heart; rats, oral administration (5 mg/kg), mean; read-out: AUC0–24h
result.type: AUC(0-t) (ng·h/mL)

COc1cc(OC)cc(N2CCN(C(=O)Nc3nc4cc(F)ccc4nc3OC)CC2)c1 : 3550

###

# procedure.details: In vivo pharmacokinetic study, oral administration to rats
# run.parameters: male, Sprague-Dawley, rat, plasma; rats, oral, 0.5 mg/kg; read-out: F (absolute oral bioavailability)
result.type: bioavailability (%)

COc1cc(OC)cc(N2CCN(C(=O)Nc3nc4cc(F)ccc4nc3OC)CC2)c1 : 57.4

###

# procedure.details: Tissue distribution (tissue-to-plasma partition) in rats
# Assay type: in vivo
# run.parameters: male, Sprague-Dawley, rat; Spleen; rats, oral administration (5 mg/kg); read-out: Kp (tissue to plasma AUC ratio)
result.type: Kp

COc1cc(OC)cc(N2CCN(C(=O)Nc3nc4cc(F)ccc4nc3OC)CC2)c1 : 0.65

###

# procedure.details: Tissue distribution (tissue-to-plasma partition) in rats
# Format: in vivo
# run.parameters: male, Sprague Dawley, rat; Adipose tissue; rats, oral administration (5 mg/kg), mean; read-out: AUC0–24h
result.type: AUC(0-t) (µg·h/mL)

COc1cc(OC)cc(N2CCN(C(=O)Nc3nc4cc(F)ccc4nc3OC)CC2)c1 [supinoxin] : 111

###

# procedure.details: In vivo pharmacokinetic study, oral administration to rats
# run.parameters: male, Sprague-Dawley, rat, plasma; rats, oral, 0.5 mg/kg
# Experimental: Male Sprague Dawley (SD) rats, 6–7 weeks old, were purchased from Orient Bio Inc. (Seongnam-si, Korea) and were used in all in vivo studies. […] The peak concentration (Cmax) and the time to reach Cmax (Tmax) were obtained directly from individual plasma concentration–time profiles. […] The systemic clearance (CL), mean residence time (MRT), and the volume of the distribution at the steady state (Vss) were calculated as follows: dose/AUC, AUMC/AUC, and MRT·CL, respectively. […]
result.type: Tmax (min)

COc1cc(OC)cc(N2CCN(C(=O)Nc3nc4cc(F)ccc4nc3OC)CC2)c1 [supinoxin] : 48

###

# procedure.details: In vivo pharmacokinetic study, oral administration to rats
# run.parameters: male, Sprague-Dawley, rat, plasma; rats, oral, 5 mg/kg
result.type: half-life (h)

COc1cc(OC)cc(N2CCN(C(=O)Nc3nc4cc(F)ccc4nc3OC)CC2)c1 [supinoxin] : 2.02

###

# procedure.details: Determination of urinary and fecal excretion in rats
# Assay type: in vivo
# run.parameters: male, Sprague-Dawley (SD), rat, urine, both intravenous and oral administration, 5 mg/kg, read-out: total urinary recovery of unchanged supinoxin
result.type: dose excreted

COc1cc(OC)cc(N2CCN(C(=O)Nc3nc4cc(F)ccc4nc3OC)CC2)c1 : < 0.1%

###

# assay.target: CYP2C19 (Homo sapiens)
# Sequence (P33261 whole entry): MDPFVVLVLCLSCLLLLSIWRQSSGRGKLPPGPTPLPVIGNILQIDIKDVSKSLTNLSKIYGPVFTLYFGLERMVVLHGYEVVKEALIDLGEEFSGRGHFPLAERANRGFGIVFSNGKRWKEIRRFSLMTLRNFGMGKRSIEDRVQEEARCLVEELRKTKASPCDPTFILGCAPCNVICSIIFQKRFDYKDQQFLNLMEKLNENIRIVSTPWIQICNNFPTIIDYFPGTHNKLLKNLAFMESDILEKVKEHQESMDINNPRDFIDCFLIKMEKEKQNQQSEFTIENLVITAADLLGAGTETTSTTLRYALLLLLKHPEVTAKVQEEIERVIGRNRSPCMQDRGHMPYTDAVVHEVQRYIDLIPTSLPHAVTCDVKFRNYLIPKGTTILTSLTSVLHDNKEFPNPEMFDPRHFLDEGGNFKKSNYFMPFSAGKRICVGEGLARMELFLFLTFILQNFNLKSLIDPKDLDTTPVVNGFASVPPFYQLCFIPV
# procedure.details: CYP inhibition, Vivid CYP450 screening kit
# run.parameters: human recombinant CYP2C19
result.type: IC50

COc1cc(OC)cc(N2CCN(C(=O)Nc3nc4cc(F)ccc4nc3OC)CC2)c1 [supinoxin] : > 10 µM

###

# procedure.details: Tissue distribution (tissue-to-plasma partition) in rats
# Assay type: in vivo
# run.parameters: male, Sprague-Dawley, rat; Liver; rats, oral administration (5 mg/kg), mean; read-out: AUC0–24h
result.type: AUC(0-t) (ng·h/mL)

COc1cc(OC)cc(N2CCN(C(=O)Nc3nc4cc(F)ccc4nc3OC)CC2)c1 : 24300

###

# procedure.details: In vivo pharmacokinetic study, intravenous administration to rats
# run.parameters: male, Sprague Dawley, rat, plasma; rats, intravenous, 0.5 mg/kg
# Description: Male Sprague Dawley (SD) rats, 6–7 weeks old, were purchased from Orient Bio Inc. (Seongnam-si, Korea) and were used in all in vivo studies. […] The peak concentration (Cmax) and the time to reach Cmax (Tmax) were obtained directly from individual plasma concentration–time profiles. […] The systemic clearance (CL), mean residence time (MRT), and the volume of the distribution at the steady state (Vss) were calculated as follows: dose/AUC, AUMC/AUC, and MRT·CL, respectively. […]
result.type: AUC(0-inf)

COc1cc(OC)cc(N2CCN(C(=O)Nc3nc4cc(F)ccc4nc3OC)CC2)c1 [supinoxin] : 727 ng·h/mL
